test-target: T1, Biotinylated CD3-specific binding domain SEQ ID NO: 14 (biotinylated (site not stated))
T1 construct: Ligand on the neutravidin (NLC) SPR chip
T1 chain: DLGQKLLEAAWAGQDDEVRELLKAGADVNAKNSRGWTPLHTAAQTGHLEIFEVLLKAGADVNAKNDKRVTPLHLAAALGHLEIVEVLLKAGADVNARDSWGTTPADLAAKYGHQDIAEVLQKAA
assay-remarks: calculated from SPR koff (ln2/koff)
# reported Blocking T1/2; entries follow
Write the answer as a number in h, unit excluded.

binder	Blocking T1/2 (h)
Binder #3 (designed binder) MRGSHHHHHHGSDLGKKLLQAARAGQLDEVRELLKAGADVNAKDFKGLTPLHLAAAHGHLEIVEVLLKAGADVNAKDVYGWTPLHWAAAKGHLEIVEVLLKAGADVNAKDWLGITPLHLAASHGHLEIVEVLLKAGADVNAQDKSGKTPADLAARAGHQDIAEVLQKAA	10.1

Turning now to a further record.
The measured Blocking T1/2 associated with Binder #4 (designed binder) MRGSHHHHHHGSDLGKKLLQAARAGQLDEVRELLKAGADVNAKDFKGLTPLHLAAEHGHLEIVEVLLKAGADVNAKDVYGWTPLHWAAAKGHLEIVEVLLKAGADVNAKDWLGITPLHLAASHGHLEIVEVLLKAGADVNAQDKSGKTPADLAARAGHQDIAEVLQKAA reads 16
